// reported normalised cell number per item
assay: differential killing of epithelial or mesenchymal cells, primary screen, imaging, PC-3E GFP, TEM4-18 mCherry, co-culture (AID 1345086); conditions: imaging cell counts, measured here: epithelial PC-3E GFP cell survival, at 1 µM;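 note: cells exposed to compound for 72 h before imaging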
# print the numeric value only

Prompt: Query (compound): CNC(=O)c1c(I)c(NC(C)=O)c(I)c(C(=O)O)c1I ; field requested: normalised cell number
Completion: 1.25

Prompt: Could you do the same for CCCCOCCOCCOCc1cc2c(cc1CCC)OCO2 , please?
Completion: 1.28

Prompt: Could you do the same for COc1ccc2c(c1OC)OC[C@@H](c1ccc(OC)c(OC)c1OC)C2 , please?
Completion: 0.93

Prompt: Could you do the same for CC(C)c1ccc2c(c1)CCC1[C@](C)(CN)CCC[C@]21C (stereo partly drawn) , please?
Completion: 0.95

Prompt: Could you do the same for O=C(/C=C/c1ccc(O)c(O)c1)OCCc1ccccc1 , please?
Completion: 1.3

Prompt: Could you do the same for COc1ccc(C(=O)/C=C/c2ccccc2)cc1 , please?
Completion: 0.89

Prompt: Could you do the same for COc1ccc2[nH]c(S(=O)Cc3ncc(C)c(OC)c3C)nc2n1 (stereo not drawn) , please?
Completion: 1.01
